The origin of these recorded values is paper PMC8657793.

Let's look at some compounds and their measured inhibition at 1 µM.
test-system: IGF1R (Homo sapiens, UniProt P08069)
Construct: purchased Promega
Sequence (P08069 31-1367): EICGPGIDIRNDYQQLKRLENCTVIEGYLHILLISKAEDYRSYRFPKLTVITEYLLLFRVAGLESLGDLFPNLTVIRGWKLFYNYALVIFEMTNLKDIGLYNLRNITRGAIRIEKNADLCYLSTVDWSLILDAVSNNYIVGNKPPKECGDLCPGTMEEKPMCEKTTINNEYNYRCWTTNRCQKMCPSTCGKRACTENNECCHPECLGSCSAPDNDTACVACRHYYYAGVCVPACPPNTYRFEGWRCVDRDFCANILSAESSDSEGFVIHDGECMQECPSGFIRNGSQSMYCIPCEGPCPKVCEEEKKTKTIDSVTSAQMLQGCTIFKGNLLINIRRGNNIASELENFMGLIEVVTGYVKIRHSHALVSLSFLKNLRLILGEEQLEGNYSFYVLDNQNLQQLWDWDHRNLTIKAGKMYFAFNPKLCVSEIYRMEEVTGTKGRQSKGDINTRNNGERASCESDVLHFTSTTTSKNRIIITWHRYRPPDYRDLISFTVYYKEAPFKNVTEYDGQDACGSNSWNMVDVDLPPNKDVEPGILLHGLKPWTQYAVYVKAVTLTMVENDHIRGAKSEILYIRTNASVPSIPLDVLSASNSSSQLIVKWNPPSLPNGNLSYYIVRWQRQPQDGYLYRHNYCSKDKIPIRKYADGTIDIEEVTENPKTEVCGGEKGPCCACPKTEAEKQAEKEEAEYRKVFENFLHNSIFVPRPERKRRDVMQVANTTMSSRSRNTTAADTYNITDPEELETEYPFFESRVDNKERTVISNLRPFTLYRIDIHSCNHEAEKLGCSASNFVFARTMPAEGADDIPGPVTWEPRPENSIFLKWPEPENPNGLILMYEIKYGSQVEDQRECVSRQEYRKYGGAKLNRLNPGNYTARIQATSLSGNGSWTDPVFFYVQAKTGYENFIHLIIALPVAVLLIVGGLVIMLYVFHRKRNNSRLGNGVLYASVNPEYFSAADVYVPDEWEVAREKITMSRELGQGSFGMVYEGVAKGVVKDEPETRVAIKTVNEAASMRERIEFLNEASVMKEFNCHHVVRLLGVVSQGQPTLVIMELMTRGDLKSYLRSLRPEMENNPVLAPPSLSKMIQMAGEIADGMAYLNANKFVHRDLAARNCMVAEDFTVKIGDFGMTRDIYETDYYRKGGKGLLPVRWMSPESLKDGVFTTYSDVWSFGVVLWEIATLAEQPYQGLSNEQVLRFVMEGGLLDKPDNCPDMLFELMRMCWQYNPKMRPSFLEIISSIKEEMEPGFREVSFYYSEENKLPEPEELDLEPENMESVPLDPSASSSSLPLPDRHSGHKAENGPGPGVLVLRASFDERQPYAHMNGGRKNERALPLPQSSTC
method-notes: Kinase Selectivity Profiling System TK-1 / ADP-Glo, IGF1R
Assay type: biochemical
quantity-measured: inhibition at 1 µM (%)

[
  {
    "compound": "COc1nc(Cl)nc2c1ncn2Cc1ccc(C(=O)Nc2cc(-n3cnc(C)c3)cc(C(F)(F)F)c2)cc1 [Compound 14]",
    "test-system": "IGF1R (Homo sapiens, UniProt P08069)",
    "unit-label": "%",
    "recorded-number": 0
  },
  {
    "compound": "COc1nc(Cl)nc2c1ncn2Cc1ccc(C(=O)Nc2cccc(C(F)(F)F)c2)cc1 [Compound 13]",
    "test-system": "IGF1R (Homo sapiens, UniProt P08069)",
    "unit-label": "%",
    "recorded-number": 0
  },
  {
    "compound": "CS(=O)(=O)CCNCc1ccc(-c2ccc3ncnc(Nc4ccc(OCc5cccc(F)c5)c(Cl)c4)c3c2)o1 [Lapatinib, lapatinib, reference compound]",
    "test-system": "IGF1R (Homo sapiens, UniProt P08069)",
    "unit-label": "%",
    "recorded-number": 0
  }
]

====

Test system: HepG2 (human liver cancer)
method-notes: MTT anti-proliferative assay, HepG2
Format: cell-based
test-settings: 48 h
From the text: To determine the selectivity of the synthesized compounds 7–16 toward various cancer cells and normal human cells, the anti-proliferative activity against K562 (chronic myelogenous leukemia), HL-60 (promyelocytic leukemia), MCF-7 (breast adenocarcinoma), HeLa (cervix carcinoma), HepG2 (human liver cancer), A549 (lung carcinoma), OKP-GS (renal cell carcinoma), and normal cells RPMI 1788 (B lymphocyte, the human cell line) was investigated. […]
quantity-measured: IC50 (µM)

[
  {
    "compound": "Nc1nc(Cl)nc2c1ncn2Cc1ccc(C(=O)Nc2cccc(C(F)(F)F)c2)cc1 [Compound 15]",
    "recorded-number": 88.3
  },
  {
    "compound": "Cc1cn(-c2cc(NC(=O)c3ccc(Cn4cnc5c(Cl)nc(Cl)nc54)cc3)cc(C(F)(F)F)c2)cn1 [Compound 10]",
    "recorded-number": 12.7
  },
  {
    "compound": "CNC(=O)c1cc(Oc2ccc(NC(=O)Nc3ccc(Cl)c(C(F)(F)F)c3)cc2)ccn1 [Sorafenib, sorafenib, reference compound]",
    "recorded-number": 8.4
  },
  {
    "compound": "O=C(Nc1cccc(C(F)(F)F)c1)c1ccc(Cn2cnc3c(Cl)nc(Cl)nc32)cc1 [Compound 7]",
    "recorded-number": 11.3
  },
  {
    "compound": "COc1nc(Cl)nc2c1ncn2Cc1ccc(C(=O)Nc2cc(-n3cnc(C)c3)cc(C(F)(F)F)c2)cc1 [Compound 14]",
    "recorded-number": 28.5
  },
  {
    "compound": "COc1nc(Cl)nc2c1ncn2Cc1ccc(C(=O)Nc2cccc(C(F)(F)F)c2)cc1 [Compound 13]",
    "recorded-number": 9.16
  }
]

====

test-system: EGFR (Homo sapiens, UniProt P00533)
Construct: purchased Promega
Sequence (P00533 25-1210): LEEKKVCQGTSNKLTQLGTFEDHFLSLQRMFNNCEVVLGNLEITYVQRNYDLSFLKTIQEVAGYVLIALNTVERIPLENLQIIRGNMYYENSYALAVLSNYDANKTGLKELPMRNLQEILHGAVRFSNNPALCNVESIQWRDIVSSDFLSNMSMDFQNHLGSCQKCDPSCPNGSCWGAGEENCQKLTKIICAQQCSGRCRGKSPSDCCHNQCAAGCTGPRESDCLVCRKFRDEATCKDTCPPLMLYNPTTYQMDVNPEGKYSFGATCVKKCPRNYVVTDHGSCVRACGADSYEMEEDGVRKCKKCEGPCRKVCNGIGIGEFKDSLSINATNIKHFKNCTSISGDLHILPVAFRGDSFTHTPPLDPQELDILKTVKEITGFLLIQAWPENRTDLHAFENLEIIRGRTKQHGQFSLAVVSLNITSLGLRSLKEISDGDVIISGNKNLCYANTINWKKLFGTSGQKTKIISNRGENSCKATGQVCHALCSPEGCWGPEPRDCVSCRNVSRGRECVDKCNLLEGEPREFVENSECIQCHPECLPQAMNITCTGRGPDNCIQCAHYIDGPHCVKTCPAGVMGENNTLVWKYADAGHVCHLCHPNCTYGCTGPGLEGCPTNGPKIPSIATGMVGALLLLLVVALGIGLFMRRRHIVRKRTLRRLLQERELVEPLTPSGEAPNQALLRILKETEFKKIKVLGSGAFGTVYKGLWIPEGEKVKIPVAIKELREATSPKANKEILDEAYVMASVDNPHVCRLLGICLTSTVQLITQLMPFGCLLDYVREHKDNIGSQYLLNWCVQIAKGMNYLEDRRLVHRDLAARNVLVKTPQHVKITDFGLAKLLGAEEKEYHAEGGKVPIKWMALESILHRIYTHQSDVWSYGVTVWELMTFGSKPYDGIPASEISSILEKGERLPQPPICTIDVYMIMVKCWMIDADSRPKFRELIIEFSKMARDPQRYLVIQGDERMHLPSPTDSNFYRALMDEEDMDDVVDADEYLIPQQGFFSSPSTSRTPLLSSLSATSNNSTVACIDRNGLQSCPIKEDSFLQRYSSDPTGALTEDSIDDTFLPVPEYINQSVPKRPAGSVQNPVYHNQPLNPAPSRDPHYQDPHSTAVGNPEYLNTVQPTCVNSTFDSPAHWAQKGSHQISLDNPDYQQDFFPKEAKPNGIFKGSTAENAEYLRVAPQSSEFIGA
method-notes: Kinase Selectivity Profiling System TK-1 / ADP-Glo, EGFR
Format: biochemical
Procedure: At the end, 10 μL of kinase detection reagent was added into the well and incubated for 30 min to produce a luminescence signal.
Decision: inhibition at 1 µM compared against 10%; not below it gives Condition met, below it gives Condition not met.

[
  {
    "compound": "COc1nc(Cl)nc2c1ncn2Cc1ccc(C(=O)Nc2cccc(C(F)(F)F)c2)cc1 [Compound 13]",
    "test-system": "EGFR (Homo sapiens, UniProt P00533)",
    "classification": "Condition met"
  },
  {
    "compound": "Nc1ncnc2c1ncn2Cc1ccc(C(=O)Nc2cccc(C(F)(F)F)c2)cc1 [Compound 9]",
    "test-system": "EGFR (Homo sapiens, UniProt P00533)",
    "classification": "Condition met"
  },
  {
    "compound": "Nc1nc(F)nc2c1ncn2Cc1ccc(C(=O)Nc2cccc(C(F)(F)F)c2)cc1 [Compound 8]",
    "test-system": "EGFR (Homo sapiens, UniProt P00533)",
    "classification": "Condition met"
  },
  {
    "compound": "Cc1cn(-c2cc(NC(=O)c3ccc(Cn4cnc5c(N)nc(F)nc54)cc3)cc(C(F)(F)F)c2)cn1 [Compound 11]",
    "test-system": "EGFR (Homo sapiens, UniProt P00533)",
    "classification": "Condition met"
  },
  {
    "compound": "Cc1cn(-c2cc(NC(=O)c3ccc(Cn4cnc5c(Cl)nc(Cl)nc54)cc3)cc(C(F)(F)F)c2)cn1 [Compound 10]",
    "test-system": "EGFR (Homo sapiens, UniProt P00533)",
    "classification": "Condition not met"
  },
  {
    "compound": "Cc1cn(-c2cc(NC(=O)c3ccc(Cn4cnc5c(N)ncnc54)cc3)cc(C(F)(F)F)c2)cn1 [Compound 12]",
    "test-system": "EGFR (Homo sapiens, UniProt P00533)",
    "classification": "Condition met"
  },
  {
    "compound": "Nc1nc(Cl)nc2c1ncn2Cc1ccc(C(=O)Nc2cccc(C(F)(F)F)c2)cc1 [Compound 15]",
    "test-system": "EGFR (Homo sapiens, UniProt P00533)",
    "classification": "Condition not met"
  },
  {
    "compound": "Cc1cn(-c2cc(NC(=O)c3ccc(Cn4cnc5c(N)nc(Cl)nc54)cc3)cc(C(F)(F)F)c2)cn1 [Compound 16]",
    "test-system": "EGFR (Homo sapiens, UniProt P00533)",
    "classification": "Condition met"
  },
  {
    "compound": "COc1nc(Cl)nc2c1ncn2Cc1ccc(C(=O)Nc2cc(-n3cnc(C)c3)cc(C(F)(F)F)c2)cc1 [Compound 14]",
    "test-system": "EGFR (Homo sapiens, UniProt P00533)",
    "classification": "Condition not met"
  },
  {
    "compound": "O=C(Nc1cccc(C(F)(F)F)c1)c1ccc(Cn2cnc3c(Cl)nc(Cl)nc32)cc1 [Compound 7]",
    "test-system": "EGFR (Homo sapiens, UniProt P00533)",
    "classification": "Condition not met"
  }
]

====

test-system: HER4 (Homo sapiens)
Construct: purchased Promega
method-notes: Kinase Selectivity Profiling System TK-1 / ADP-Glo, HER4
Type: biochemical
Let's look at some molecules and their measured inhibition at 1 µM.

[
  {
    "chemical-structure": "COc1nc(Cl)nc2c1ncn2Cc1ccc(C(=O)Nc2cc(-n3cnc(C)c3)cc(C(F)(F)F)c2)cc1",
    "unit-label": "%",
    "inhibition at 1 µM": 0
  },
  {
    "chemical-structure": "Nc1nc(Cl)nc2c1ncn2Cc1ccc(C(=O)Nc2cccc(C(F)(F)F)c2)cc1",
    "unit-label": "%",
    "inhibition at 1 µM": 0
  },
  {
    "chemical-structure": "Cc1cn(-c2cc(NC(=O)c3ccc(Cn4cnc5c(N)nc(Cl)nc54)cc3)cc(C(F)(F)F)c2)cn1",
    "unit-label": "%",
    "inhibition at 1 µM": 0
  }
]

====

Let's look at some molecules and their measured inhibition at 1 µM.
test-system: HER4 (Homo sapiens, UniProt Q15303)
Construct: purchased Promega
Sequence (Q15303 26-1308): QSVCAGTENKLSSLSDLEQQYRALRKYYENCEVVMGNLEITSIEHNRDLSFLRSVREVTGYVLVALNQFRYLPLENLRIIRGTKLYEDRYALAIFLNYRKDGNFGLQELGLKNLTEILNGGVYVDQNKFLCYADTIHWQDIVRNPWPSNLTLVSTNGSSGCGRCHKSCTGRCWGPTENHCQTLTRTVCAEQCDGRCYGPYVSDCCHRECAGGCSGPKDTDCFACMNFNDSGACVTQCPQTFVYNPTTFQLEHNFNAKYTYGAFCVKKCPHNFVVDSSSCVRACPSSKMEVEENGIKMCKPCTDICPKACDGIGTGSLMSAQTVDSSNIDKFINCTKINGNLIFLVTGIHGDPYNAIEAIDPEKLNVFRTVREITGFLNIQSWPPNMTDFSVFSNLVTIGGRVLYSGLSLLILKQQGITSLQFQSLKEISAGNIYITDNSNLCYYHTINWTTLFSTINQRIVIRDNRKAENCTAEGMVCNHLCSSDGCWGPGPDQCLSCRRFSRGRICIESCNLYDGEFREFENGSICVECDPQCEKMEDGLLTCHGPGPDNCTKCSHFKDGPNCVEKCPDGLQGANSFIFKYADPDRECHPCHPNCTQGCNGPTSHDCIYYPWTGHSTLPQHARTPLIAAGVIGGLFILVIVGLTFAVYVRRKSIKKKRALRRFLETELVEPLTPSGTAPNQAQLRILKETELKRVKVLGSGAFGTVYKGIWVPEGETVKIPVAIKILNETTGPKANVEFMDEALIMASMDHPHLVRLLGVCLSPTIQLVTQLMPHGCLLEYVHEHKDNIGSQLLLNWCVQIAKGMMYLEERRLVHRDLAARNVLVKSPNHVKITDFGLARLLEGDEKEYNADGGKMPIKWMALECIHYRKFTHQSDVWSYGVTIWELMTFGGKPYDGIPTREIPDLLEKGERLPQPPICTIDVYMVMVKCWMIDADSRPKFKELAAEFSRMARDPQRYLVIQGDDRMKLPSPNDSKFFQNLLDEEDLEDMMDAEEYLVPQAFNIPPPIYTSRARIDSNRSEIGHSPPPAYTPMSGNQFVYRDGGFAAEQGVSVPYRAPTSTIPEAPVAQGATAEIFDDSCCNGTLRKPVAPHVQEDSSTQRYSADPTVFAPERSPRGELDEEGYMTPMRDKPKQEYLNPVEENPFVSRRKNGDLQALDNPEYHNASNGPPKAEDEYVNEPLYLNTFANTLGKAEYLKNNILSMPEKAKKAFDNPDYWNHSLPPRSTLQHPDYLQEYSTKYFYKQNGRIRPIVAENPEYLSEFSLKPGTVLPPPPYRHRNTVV
method-notes: Kinase Selectivity Profiling System TK-1 / ADP-Glo, HER4
Type: biochemical

[
  {
    "molecule": "Cc1cn(-c2cc(NC(=O)c3ccc(Cn4cnc5c(Cl)nc(Cl)nc54)cc3)cc(C(F)(F)F)c2)cn1",
    "inhibition at 1 µM (%)": 0
  },
  {
    "molecule": "Cc1cn(-c2cc(NC(=O)c3ccc(Cn4cnc5c(N)ncnc54)cc3)cc(C(F)(F)F)c2)cn1",
    "inhibition at 1 µM (%)": 0
  },
  {
    "molecule": "Nc1nc(F)nc2c1ncn2Cc1ccc(C(=O)Nc2cccc(C(F)(F)F)c2)cc1",
    "inhibition at 1 µM (%)": 23
  },
  {
    "molecule": "Nc1ncnc2c1ncn2Cc1ccc(C(=O)Nc2cccc(C(F)(F)F)c2)cc1",
    "inhibition at 1 µM (%)": 0
  },
  {
    "molecule": "Cc1cn(-c2cc(NC(=O)c3ccc(Cn4cnc5c(N)nc(F)nc54)cc3)cc(C(F)(F)F)c2)cn1",
    "inhibition at 1 µM (%)": 0
  },
  {
    "molecule": "COc1nc(Cl)nc2c1ncn2Cc1ccc(C(=O)Nc2cccc(C(F)(F)F)c2)cc1",
    "inhibition at 1 µM (%)": 0
  },
  {
    "molecule": "CS(=O)(=O)CCNCc1ccc(-c2ccc3ncnc(Nc4ccc(OCc5cccc(F)c5)c(Cl)c4)c3c2)o1 [Lapatinib, lapatinib, reference compound]",
    "inhibition at 1 µM (%)": 94
  },
  {
    "molecule": "O=C(Nc1cccc(C(F)(F)F)c1)c1ccc(Cn2cnc3c(Cl)nc(Cl)nc32)cc1",
    "inhibition at 1 µM (%)": 0
  }
]
